Would you kindly list pKd for each of these compounds?
target: IgG; experiment: IgG SPR binding; details: second table, read-out: IgG KD
pKd: −log10 of the molar value. Positions of bridges follow the written chain, without caps; N, C: chain ends. Non-standard residues stand in square brackets, D forms with d. Residues, ends and D or L forms follow the SMILES beside them. Pro(4S-NH2) = N[C@@H]1CN[C@H](C(=O)O)C1

[in] Please give measured pKd of the following entry: CC(C)C[C@@H]1NC(=O)[C@H](C)NC(=O)CNC(=O)[C@H](CC(C)C)NC(=O)[C@H](Cc2cnc[nH]2)NC(=O)[C@H](Cc2c[nH]c3ccccc23)NC(=O)[C@H](C)NC(=O)[C@@H]2CSSC[C@H](NC(=O)[C@H](Cc3c[nH]c4ccccc34)NC(=O)[C@H](C(C)C)NC1=O)C(=O)N[C@@H]([C@@H](C)O)C(=O)N1CCC[C@@H]1C(=O)N1C[C@@H](N)C[C@H]1C(=O)N[C@@H](CC(N)=O)C(=O)N2 [compound 70] (cyclo(ALVWCT[dP][Pro(4S-NH2)]NCAWHLG); disulfide 5-10)
[out] > 7.00

[in] Please give measured pKd of the following entry: CC(C)CC1NC(=O)C(Cc2cnc[nH]2)NC(=O)C(Cc2c[nH]c3ccccc23)NC(=O)C(C)NC(=O)C2CSSCC(NC(=O)C(Cc3c[nH]c4ccccc34)NC(=O)C(C(C)C)NC(=O)C(CC(C)C)NC(=O)C(CCC(=O)O)NC(=O)CNC1=O)C(=O)NC(C(C)O)C(=O)N1CCCC1C(=O)N1CC(NC(=O)c3ccc(N4CCC(CN5CCN(CC6OCC(Nc7cncc(C(F)(F)F)n7)C(O)C6O)CC5)CC4)nn3)CC1C(=O)NC(CC(=O)O)C(=O)N2 (centres unmarked) [compound 42]
[out] > 7.00

[in] Please give measured pKd of the following entry: CC(C)CC1NC(=O)C(Cc2cnc[nH]2)NC(=O)C(Cc2c[nH]c3ccccc23)NC(=O)C(C)NC(=O)C2CSSCC(NC(=O)C(Cc3c[nH]c4ccccc34)NC(=O)C(C(C)C)NC(=O)C(CC(C)C)NC(=O)C(CCC(=O)O)NC(=O)CNC1=O)C(=O)NC(C(C)O)C(=O)N1CCCC1C(=O)N1CC(N)CC1C(=O)NC(CC(=O)O)C(=O)N2 (centres unmarked) [compound 66]
[out] > 7.00

[in] Please give measured pKd of the following entry: COC1OC(Cn2cc(CCCC(=O)NC3CC4C(=O)NC(CC(=O)O)C(=O)NC5CSSCC(NC(=O)C(Cc6c[nH]c7ccccc67)NC(=O)C(C(C)C)NC(=O)C(CC(C)C)NC(=O)C(CCC(=O)O)NC(=O)CNC(=O)C(CC(C)C)NC(=O)C(Cc6cnc[nH]6)NC(=O)C(Cc6c[nH]c7ccccc67)NC(=O)C(C)NC5=O)C(=O)NC(C(C)O)C(=O)N5CCCC5C(=O)N4C3)nn2)C(O)C(O)C1NC(C)=O (centres unmarked) [compound 79]
[out] > 7.00

[in] Please give measured pKd of the following entry: CC(C)C[C@@H]1NC(=O)[C@H](C)NC(=O)CNC(=O)[C@H](CC(C)C)NC(=O)[C@H](Cc2cnc[nH]2)NC(=O)[C@H](Cc2c[nH]c3ccccc23)NC(=O)[C@H](C)NC(=O)[C@@H]2CSSC[C@H](NC(=O)[C@H](Cc3c[nH]c4ccccc34)NC(=O)[C@H](C(C)C)NC1=O)C(=O)N[C@@H]([C@@H](C)O)C(=O)N1CCC[C@@H]1C(=O)N1C[C@@H](N)C[C@H]1C(=O)N[C@@H](C)C(=O)N2 [compound 67] (cyclo(ACAWHLGALVWCT[dP][Pro(4S-NH2)]); disulfide 2-12)
[out] > 7.00
